tested-target: Scrib PDZ-2 domain (Homo sapiens, UniProt Q14160)
Construct: ROC curves of DomPep prediction for the three Scrib PDZ-1/2/3 domains
Sequence (Q14160 862-950 limits assumed): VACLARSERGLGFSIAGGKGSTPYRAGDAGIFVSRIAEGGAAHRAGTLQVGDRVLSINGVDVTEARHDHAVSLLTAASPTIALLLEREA
measurement-description: In-solution fluorescence polarization binding of peptides to Scrib PDZ2
condition-context: Kd value of 100 µM applied as binding cutoff, NB without definition, read-out: Kd (µM) PDZ2
Residues, ends and D or L forms follow the SMILES beside them.
Catalogue of Kd readings, one per entry.

**Query** Please give the documented Kd of CC[C@H](C)[C@H](NC(=O)[C@H](CCC(N)=O)NC(=O)[C@@H](NC(=O)[C@@H](NC(=O)[C@H](Cc1c[nH]cn1)NC(=O)[C@H](CCC(N)=O)NC(=O)CNC(=O)[C@@H]1CCCN1C(=O)[C@H](C)NC(=O)[C@@H]1CCCN1)[C@@H](C)O)[C@@H](C)O)C(=O)O [STK16] (H-PAPGQHTTQI-OH)
**Result** > 100 µM

**Query** Please give the documented Kd of CC(C)C[C@H](NC(=O)[C@H](CCCCN)NC(=O)[C@H](CO)NC(=O)[C@H](CC(N)=O)NC(=O)[C@@H](NC(=O)[C@H](CO)NC(=O)[C@H](Cc1c[nH]cn1)NC(=O)[C@@H]1CCCN1C(=O)[C@H](CC(C)C)NC(=O)[C@@H](N)CCC(=O)O)C(C)C)C(=O)O [ZADH2] (H-ELPHSVNSKL-OH; N-terminus and C-terminus assumed)
**Result** > 100 µM

**Query** Please give the documented Kd of CC[C@H](C)[C@H](NC(=O)CNC(=O)[C@@H](NC(=O)CNC(=O)[C@H](Cc1c[nH]cn1)NC(=O)[C@H](CC(C)C)NC(=O)[C@H](Cc1c[nH]cn1)NC(=O)[C@@H](N)CC(C)C)[C@@H](C)O)C(=O)N[C@@H](CCC(N)=O)C(=O)N[C@H](C(=O)O)C(C)C [EPHA7] (H-LHLHGTGIQV-OH; N-terminus and C-terminus assumed)
**Result** > 100 µM

**Query** Please give the documented Kd of CC(C)C[C@H](NC(=O)[C@@H](NC(=O)[C@H](CC(N)=O)NC(=O)[C@@H](N)CCCNC(=N)N)[C@@H](C)O)C(=O)N[C@@H](Cc1ccc(O)cc1)C(=O)N[C@@H](Cc1ccccc1)C(=O)N[C@@H](CO)C(=O)N[C@H](C(=O)N[C@@H](CC(=O)O)C(=O)N[C@H](C(=O)O)C(C)C)[C@@H](C)O [ABR] (H-RNTLYFSTDV-OH)
**Result** 10.4 µM

**Query** Please give the documented Kd of CSCC[C@H](NC(=O)[C@H](CCCNC(=N)N)NC(=O)[C@H](CCCCN)NC(=O)[C@H](CCC(=O)O)NC(=O)[C@H](C)NC(=O)[C@@H](N)Cc1ccc(O)cc1)C(=O)N[C@@H](CC(C)C)C(=O)N[C@H](C(=O)N[C@@H](CCC(=O)O)C(=O)N[C@H](C(=O)O)C(C)C)[C@@H](C)O [KCNA6] (H-YAEKRMLTEV-OH)
**Result** > 100 µM

* * *

tested-target: Scrib PDZ-2 domain (Homo sapiens, UniProt Q14160)
Construct: ROC curves of DomPep prediction for the three Scrib PDZ-1/2/3 domains
measurement-description: In-solution fluorescence polarization binding of peptides to Scrib PDZ2
condition-context: Kd value of 100 µM applied as binding cutoff, NB without definition, read-out: Kd (µM) PDZ2
Residues, ends and D or L forms follow the SMILES beside them.
value-type: Kd

Sample records with Kd:
CC(C)[C@H](NC(=O)[C@H](CO)NC(=O)[C@H](CCCCN)NC(=O)[C@H](CCCCN)NC(=O)[C@H](CO)NC(=O)[C@H](CCCCN)NC(=O)[C@H](CCCCN)NC(=O)[C@H](CCCCN)NC(=O)[C@H](CCC(=O)O)NC(=O)[C@H](C)N)C(=O)O [PSMA8] (H-AEKKKSKKSV-OH) ... > 100 µM
CC(C)C[C@H](NC(=O)[C@H](CC(=O)O)NC(=O)[C@@H](NC(=O)[C@H](CO)NC(=O)[C@H](C)NC(=O)[C@H](CCCCN)NC(=O)[C@H](C)NC(=O)[C@@H](NC(=O)[C@H](CC(C)C)NC(=O)[C@@H](N)C(C)C)[C@@H](C)O)[C@@H](C)O)C(=O)O [LPP] (H-VLTAKASTDL-OH) ... > 100 µM
CC(C)C[C@H](NC(=O)[C@H](CC(N)=O)NC(=O)[C@H](CCC(=O)O)NC(=O)CNC(=O)[C@@H]1CCCN1C(=O)[C@H](CCC(N)=O)NC(=O)[C@H](Cc1ccc(O)cc1)NC(=O)[C@H](CCC(N)=O)NC(=O)[C@@H]1CCCN1C(=O)[C@@H](N)CCC(=O)O)C(=O)O [SRC] (H-EPQYQPGENL-OH) ... > 100 µM
CC(C)C[C@H](NC(=O)[C@@H](NC(=O)[C@H](CCCCN)NC(=O)[C@H](CC(C)C)NC(=O)[C@H](Cc1ccccc1)NC(=O)[C@H](CCCCN)NC(=O)[C@H](CCC(=O)O)NC(=O)[C@H](Cc1ccccc1)NC(=O)[C@H](CC(=O)O)NC(=O)[C@@H](N)CCC(N)=O)[C@@H](C)O)C(=O)O [MTERFD1] (H-QDFEKFLKTL-OH; N-terminus and C-terminus assumed) ... > 100 µM
CC(C)C[C@H](NC(=O)[C@H](CO)NC(=O)[C@@H](NC(=O)[C@@H](NC(=O)[C@@H](NC(=O)[C@H](Cc1ccccc1)NC(=O)[C@@H](NC(=O)[C@H](CC(=O)O)NC(=O)[C@H](CCC(=O)O)NC(=O)[C@@H]1CCCN1)[C@@H](C)O)[C@@H](C)O)C(C)C)[C@@H](C)O)C(=O)O [AHDC1] (H-PEDTFTVTSL-OH) ... > 100 µM
CC(C)C[C@H](NC(=O)[C@H](CO)NC(=O)[C@@H](NC(=O)[C@H](CC(=O)O)NC(=O)[C@@H](NC(=O)[C@H](CC(C)C)NC(=O)[C@H](CCC(N)=O)NC(=O)CNC(=O)[C@@H]1CCCN1C(=O)[C@@H](N)CCC(N)=O)C(C)C)[C@@H](C)O)C(=O)O [ANKS4B] (H-QPGQLVDTSL-OH) ... > 100 µM
CC(C)C[C@H](NC(=O)[C@H](C)NC(=O)[C@@H](NC(=O)[C@H](CO)NC(=O)[C@@H](N)CO)[C@@H](C)O)C(=O)N[C@@H](Cc1c[nH]cn1)C(=O)N[C@@H](CCC(N)=O)C(=O)N[C@@H](Cc1c[nH]cn1)C(=O)N[C@@H](Cc1c[nH]cn1)C(=O)N[C@@H](Cc1ccccc1)C(=O)O [LIMD1] (H-SSTALHQHHF-OH; N-terminus and C-terminus assumed) ... > 100 µM
CC[C@H](C)[C@H](NC(=O)[C@@H](N)CC(N)=O)C(=O)NCC(=O)N[C@@H](CO)C(=O)N[C@@H](CCC(N)=O)C(=O)NCC(=O)N[C@@H](CO)C(=O)N[C@H](C(=O)N[C@@H](CC(=O)O)C(=O)N[C@@H](Cc1ccc(O)cc1)C(=O)O)[C@@H](C)O [TRIM21] (H-NIGSQGSTDY-OH) ... > 100 µM
CC[C@H](C)[C@H](NC(=O)[C@@H]1CCCN1C(=O)[C@@H]1CCCN1C(=O)[C@@H](NC(=O)[C@H](CO)NC(=O)[C@H](Cc1ccc(O)cc1)NC(=O)[C@H](CC(C)C)NC(=O)[C@@H](NC(=O)[C@@H](NC(=O)[C@@H](N)CO)C(C)C)C(C)C)[C@@H](C)O)C(=O)O [FLT1] (H-SVVLYSTPPI-OH; N-terminus and C-terminus assumed) ... > 100 µM
CC(C)C[C@H](NC(=O)[C@H](CS)NC(=O)[C@H](Cc1c[nH]cn1)NC(=O)[C@H](CC(C)C)NC(=O)[C@H](C)NC(=O)[C@H](CCC(=O)O)NC(=O)[C@H](CC(C)C)NC(=O)[C@H](CCC(=O)O)NC(=O)[C@@H]1CCCN1C(=O)[C@@H](N)CC(=O)O)C(=O)O [EPHA8] (H-DPELEALHCL-OH) ... 24.9 µM

**Query** Please give the documented Kd of CC(C)C[C@H](NC(=O)[C@@H](N)C(C)C)C(=O)N[C@@H](Cc1ccc(O)cc1)C(=O)N1CCC[C@H]1C(=O)N[C@@H](CCCNC(=N)N)C(=O)N[C@@H](CCC(=O)O)C(=O)NCC(=O)N[C@H](C(=O)N[C@@H](CCC(=O)O)C(=O)N[C@H](C(=O)O)C(C)C)[C@@H](C)O [FOXl1] (H-VLYPREGTEV-OH)
**Result** 24.7 µM

**Query** Please give the documented Kd of CC(C)C[C@H](NC(=O)[C@@H](NC(=O)[C@@H](NC(=O)[C@H](CO)NC(=O)[C@@H]1CCCN1C(=O)[C@H](CC(C)C)NC(=O)[C@H](CCCCN)NC(=O)[C@H](CCCNC(=N)N)NC(=O)[C@@H](NC(=O)[C@@H](N)CCCNC(=N)N)C(C)C)[C@@H](C)O)[C@@H](C)O)C(=O)O [RPS6KA1] (H-RVRKLPSTTL-OH)
**Result** > 100 µM
